target or test system: Bromodomain testis-specific protein (Homo sapiens) (UniProt Q58F21)
experiment description: Binding affinity of recombinant His-tagged BRDT-BD1 (unknown origin) to histone H4Ac (1 to 21 residues) K5/8/12/Ac-Biotin-OH assessed as residual binding at 10 uM incubated for 30 mins by alphascreen analysis relative to control
endpoint label: Activity (%)
Express your answer in %, writing the number without its unit.

Which Activity reading was recorded for the compound CCn1nc(C)n(-c2ccc(OC)c(OC)c2)c1=O ? 97.9

Which Activity reading was recorded for the compound CCn1nc(C)n(-c2ccc(F)c(Cl)c2)c1=O ? 98.3

Which Activity reading was recorded for the compound CCc1nn(CC)c(=O)n1-c1cccc(C(F)(F)F)c1 ? 98.3

Which Activity reading was recorded for the compound CCc1nn(C)c(=O)n1-c1ccc(F)c(Cl)c1 ? 98.2

Which Activity reading was recorded for the compound CCc1nn(C)c(=O)n1-c1ccc(OC)c(OC)c1 ? 95.6

Which Activity reading was recorded for the compound Cc1nn(C)c(=O)n1-c1ccc2c(c1)OCO2 ? 92.5

###

target or test system: Bromodomain-containing protein 2 (Homo sapiens) (UniProt P25440)
Sequence (P25440 whole entry, looked up, the tested form may be a part): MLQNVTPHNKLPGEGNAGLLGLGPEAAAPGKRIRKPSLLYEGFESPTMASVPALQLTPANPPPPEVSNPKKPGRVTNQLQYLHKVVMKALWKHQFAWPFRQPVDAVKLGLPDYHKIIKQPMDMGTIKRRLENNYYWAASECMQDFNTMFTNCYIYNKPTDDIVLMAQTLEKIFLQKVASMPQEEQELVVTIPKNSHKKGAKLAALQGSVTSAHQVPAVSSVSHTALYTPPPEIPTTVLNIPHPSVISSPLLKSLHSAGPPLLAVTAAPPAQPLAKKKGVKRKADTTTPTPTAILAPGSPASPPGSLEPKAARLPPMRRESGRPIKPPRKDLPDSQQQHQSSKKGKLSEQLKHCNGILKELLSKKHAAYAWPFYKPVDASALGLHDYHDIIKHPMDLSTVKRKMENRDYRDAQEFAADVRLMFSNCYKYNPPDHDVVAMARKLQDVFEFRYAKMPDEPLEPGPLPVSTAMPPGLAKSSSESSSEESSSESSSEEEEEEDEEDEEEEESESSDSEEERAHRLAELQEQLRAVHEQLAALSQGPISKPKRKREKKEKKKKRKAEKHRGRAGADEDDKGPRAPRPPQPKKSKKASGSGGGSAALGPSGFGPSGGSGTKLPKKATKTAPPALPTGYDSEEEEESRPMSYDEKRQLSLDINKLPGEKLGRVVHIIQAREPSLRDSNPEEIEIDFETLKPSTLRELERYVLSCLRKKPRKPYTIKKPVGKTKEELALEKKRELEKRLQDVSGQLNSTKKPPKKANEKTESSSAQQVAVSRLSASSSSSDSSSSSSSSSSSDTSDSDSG
experiment description: Binding affinity of recombinant His-tagged BRD2-BD2 (unknown origin) to histone H4Ac (1 to 21 residues) K5/8/12/Ac-Biotin-OH assessed as residual binding at 10 uM incubated for 30 mins by alphascreen analysis relative to control
Below, each entry is listed with its recorded Activity.

CCc1nn(C)c(=O)n1-c1ccc(OC)c(OC)c1; 96.7%
CCc1nn(C)c(=O)n1-c1ccc2c(c1)OCO2; > 100%
CCc1nn(CC)c(=O)n1-c1cccc(C(F)(F)F)c1; > 100%

Which Activity reading was recorded for the compound CCn1nc(C)n(-c2ccc(OC)c(OC)c2)c1=O ? > 100%

###

target or test system: Bromodomain-containing protein 9 (Homo sapiens)
experiment description: Binding affinity of GST-tagged BRD9 domain (unknown origin) to histone H4Ac (1 to 21 residues) assessed as residual binding at 10 uM by alphascreen analysis relative to control
endpoint label: Activity (%)
Express your answer in %, writing the number without its unit.

Please review the following examples before continuing.
CCc1n[nH]c(=O)n1-c1ccc2c(c1)OCO2; 84.6
CCc1nn(C)c(=O)n1-c1ccc(OC)c(OC)c1; 38.1

Which Activity reading was recorded for the compound Cc1nn(C)c(=O)n1-c1ccc2c(c1)OCO2 ? 58.8

Which Activity reading was recorded for the compound COc1ccc(-n2c(C)nn(C)c2=O)cc1OC ? 28.1

Which Activity reading was recorded for the compound CCc1nn(CC)c(=O)n1-c1ccc2c(c1)OCO2 ? 91.2

###

target or test system: Bromodomain-containing protein 2 (Homo sapiens)
experiment description: Binding affinity of recombinant His-tagged BRD2-BD1 (unknown origin) to histone H4Ac (1 to 21 residues) K5/8/12/Ac-Biotin-OH assessed as residual binding at 10 uM incubated for 30 mins by alphascreen analysis relative to control
endpoint label: Activity (%)
Express your answer in %, writing the number without its unit.

Please review the following examples before continuing.
CCc1nn(CC)c(=O)n1-c1cccc(C(F)(F)F)c1; 99
COc1ccc(-n2c(C)nn(C)c2=O)cc1OC; 96.5

Which Activity reading was recorded for the compound CCc1nn(C)c(=O)n1-c1ccc2c(c1)OCO2 ? 98.9

Which Activity reading was recorded for the compound CCn1nc(C)n(-c2ccc(F)c(Cl)c2)c1=O ? 98.2
